# Test system: SR leukemia
# measurement_protocol: NCI-60 one-dose screen, 48 h (100 = growth as untreated, 0 = no growth, -100 = all killed)
# condition_summary: 10 µM unless noted
About 83,000 compounds went through this panel and 20% of them were active in at least one assay; those are over-represented in the sample as a whole.

- molecule: "CC(c1ccccc1)N(C)C (stereo not drawn)"
  assayed_system: "SR leukemia"
  growth [%]: 67.3
- molecule: "COC1OC(C(O)C(O)CO)C(O)C(O)C1O (stereo not drawn)"
  assayed_system: "SR leukemia"
  growth [%]: 97.7
- molecule: "CC(=O)OCC1CCC(COC(C)=O)CC1 (stereo not drawn)"
  assayed_system: "SR leukemia"
  growth [%]: 95.7

----------
# System: CAKI-1 renal
# measurement_protocol: NCI-60 one-dose screen, 48 h
# condition_summary: 10 µM unless noted
Compounds without any hit were thinned out: in the full panel of roughly 83,000, 20% have a hit. Active and inactive are the calls of the source. The calls were made as follows: active = growth percent below 10; inactive = the rest.
Outcomes: Yes for active, No for inactive

- molecule: "Cc1cc(CO)c(O)c(CO)c1"
  assigned_label: "No"
- molecule: "S=C=Nc1ccc2ccccc2c1"
  assigned_label: "No"
- molecule: "CC(=O)NC(O)C(Cl)Cl (configuration not stated)"
  assigned_label: "No"
- molecule: "O=S(Cc1ccccc1)/C(=C/NC(=S)Nc1cc(Cl)ccc1Cl)c1ccccc1 (configuration not stated)"
  assigned_label: "No"
- molecule: "CC(c1ccccc1)N1C(=O)CSC1=S (configuration not stated)"
  assigned_label: "No"
- molecule: "C=CCOc1ccc(Cl)cc1Cl"
  assigned_label: "No"
- molecule: "CCCNS(=O)(=O)c1ccc(Cl)cc1"
  assigned_label: "No"
- molecule: "C=CCNC(=S)N/C=C(/C(=O)c1ccccc1)c1ccccc1"
  assigned_label: "No"
- molecule: "Oc1ccc2ccccc2c1CN1CCOCC1"
  assigned_label: "No"
- molecule: "c1ccc(Oc2c3ccccc3nc3ccccc23)cc1"
  assigned_label: "Yes"
- molecule: "Nc1cc(N)ncn1"
  assigned_label: "No"
- molecule: "CCOC(C=O)OCC"
  assigned_label: "No"
- molecule: "CC(C)NC(=O)OCc1c(COC(=O)NC(C)C)c(-c2ccc(Cl)cc2)n2c1CCC2"
  assigned_label: "Yes"
- molecule: "Cc1cc(C(=O)NN)c(C#N)c(=O)[nH]1"
  assigned_label: "No"
- molecule: "O=S(=O)(O)c1ccc(O)c(C2CCCCC2)c1"
  assigned_label: "No"
- molecule: "COC(=O)C1(CC(C)=O)NC(=S)NC(=O)C1C#N (configuration not stated)"
  assigned_label: "No"
- molecule: "CC(=O)C[n+]1ccc(C)cc1Sc1ccccc1C"
  assigned_label: "No"
- molecule: "COC1C(=O)CCC2(CO2)C1(O)C1(C)OC1CCC(C)C (configuration not stated)"
  assigned_label: "No"
- molecule: "c1cc(CNCCNCc2ccncc2)ccn1"
  assigned_label: "No"
- molecule: "CN(C)c1ccc2c(N(C)C)cc(N(C)C)nc2c1"
  assigned_label: "No"
- molecule: "NCCCN1CCCC1=O"
  assigned_label: "No"
- molecule: "CCCCCCCCCCCCCCCCCC(=O)NCCNC(=O)CCCCCCCCCCCCCCCCC"
  assigned_label: "No"
- molecule: "COc1ccc(/C=C\\C(=O)/C=C/c2ccc(OC)cc2)cc1"
  assigned_label: "No"
- molecule: "COc1ccc(C(=O)/C(=N/Nc2ccccc2)c2ccc(OC)cc2)cc1"
  assigned_label: "No"
- molecule: "CCNc1ncnc2[nH]ncc12"
  assigned_label: "No"
- molecule: "Nc1ccn(C2CC(N)C(CO)O2)c(=O)n1 (configuration not stated)"
  assigned_label: "No"
- molecule: "CCN(C(=O)Nc1ccccc1Cl)c1ccccc1"
  assigned_label: "No"
- molecule: "Cc1cc(Nc2ccc3c(c2)OCO3)c2cc3c(cc2n1)OCO3"
  assigned_label: "No"
- molecule: "CCCCn1cnc2c(=O)[nH]cnc21"
  assigned_label: "No"
- molecule: "C#CC(O)c1ccccc1 (configuration not stated)"
  assigned_label: "No"
- molecule: "OCCNc1ccccc1"
  assigned_label: "No"
- molecule: "O=C(c1ccc(Cl)cc1)N1CCCCC1"
  assigned_label: "No"
- molecule: "CCOc1ccc2c(c1)c(C)cc(C)[n+]2CC"
  assigned_label: "No"
- molecule: "Cc1ccc2nc(N)nnc2c1"
  assigned_label: "No"
- molecule: "NNC(=O)N/N=C1\\C(=O)N(c2nccs2)C(=O)C(=O)C1c1nc2ccccc2s1 (configuration not stated)"
  assigned_label: "No"
- molecule: "O=C(N/N=C\\c1ccc(Cl)cc1Cl)c1ccncc1"
  assigned_label: "No"
- molecule: "C=C(c1ccc(N(C)C)cc1)c1ccc(N(C)C)cc1"
  assigned_label: "No"
- molecule: "COc1cc(CC#N)c([N+](=O)[O-])cc1OC"
  assigned_label: "No"
- molecule: "O=C(O)c1ccc([N+](=O)[O-])cc1S(=O)(=O)O"
  assigned_label: "No"
- molecule: "Cc1ccc[n+](CCC(N)=O)c1"
  assigned_label: "No"
- molecule: "CCOC(=O)C(C#N)=C1CCN(C)CC1"
  assigned_label: "No"
- molecule: "CCOC(=O)CNC"
  assigned_label: "No"
- molecule: "Cc1ccc(OC(=O)c2ccccc2)cc1"
  assigned_label: "No"
- molecule: "Cc1ccc(/C=N/NC(N)=S)s1"
  assigned_label: "No"
- molecule: "CC(C)N1CC(=O)N2CSCC2C1=O (configuration not stated)"
  assigned_label: "No"
- molecule: "NC(=S)N/N=C/c1ccc(OC(=O)COc2ccc(Cl)cc2)cn1"
  assigned_label: "Yes"
- molecule: "CCN1CCCC(N2c3ccccc3Sc3ccccc32)C1 (configuration not stated)"
  assigned_label: "No"

----------
// values below are reported growth
# System: MALME-3M melanoma
# measurement_protocol: NCI-60 one-dose screen, 48 h (100 = growth as untreated, 0 = no growth, -100 = all killed)
# condition_summary: 10 µM unless noted
The panel holds about 83,000 compounds, 20% with a hit somewhere; the sample as a whole holds those more often.
recorded_endpoint: growth (%)

- compound: "O=c1n(CC2CO2)c(=O)n(CC2CO2)n1CC1CO1 (configuration not stated)"
  recorded_endpoint: "growth"
  measure_unit: "%"
  assay_value: 107
- compound: "C=CC1=NC(C)(C)CC(C)O1 (configuration not stated)"
  recorded_endpoint: "growth"
  measure_unit: "%"
  assay_value: 107
- compound: "CSc1nc2[nH]ncc2c(=O)[nH]1"
  recorded_endpoint: "growth"
  measure_unit: "%"
  assay_value: 101
- compound: "Cc1ccc(C)c(CN(C)C)c1O"
  recorded_endpoint: "growth"
  measure_unit: "%"
  assay_value: 94.8
- compound: "COc1ccc(C(=O)/C(=N/Nc2ccccc2)c2ccc(OC)cc2)cc1"
  recorded_endpoint: "growth"
  measure_unit: "%"
  assay_value: 109
- compound: "c1ccc(Nc2ccccn2)nc1"
  recorded_endpoint: "growth"
  measure_unit: "%"
  assay_value: 83.4
- compound: "Cc1ccc(OC(=O)c2ccccc2)cc1"
  recorded_endpoint: "growth"
  measure_unit: "%"
  assay_value: 123

----------
# Test system: NCI-H23 lung
# measurement_protocol: NCI-60 one-dose screen, 48 h (100 = growth as untreated, 0 = no growth, -100 = all killed)
# condition_summary: 10 µM unless noted
About 83,000 compounds went through this panel and 20% of them were active in at least one assay; those are over-represented in the sample as a whole.

- molecule_smiles: "O=C(Nc1ccccc1)c1ccco1"
  growth, %: 96.2
- molecule_smiles: "C#CCSc1nnnn1-c1ccccc1"
  growth, %: 97.9
- molecule_smiles: "CC(=O)/C(C)=N\\OC(=O)Nc1ccccc1"
  growth, %: 93.8
- molecule_smiles: "N#CC1(O)CCCCC1"
  growth, %: 114

----------
Below, each entry is listed with its recorded growth.
# Tested on: HS 578T breast
# measurement_protocol: NCI-60 one-dose screen, 48 h (100 = growth as untreated, 0 = no growth, -100 = all killed)
# condition_summary: 10 µM unless noted
Compounds without any hit were thinned out: in the full panel of roughly 83,000, 20% have a hit. Active and inactive are the calls of the source. Rule for the calls: active = growth percent below 10; inactive = the rest.

- compound: "Cc1cc(C)cc(OCC(=O)O)c1"
  growth: "105% (inactive)"
- compound: "Nc1ncnc(Nc2ccccc2)n1"
  growth: "102% (inactive)"
- compound: "Cc1cccnc1NC1OC(=O)c2ccccc21 (stereo not drawn)"
  growth: "138% (inactive)"
- compound: "O=C(NCCc1ccccc1)/C(=C\\c1ccc(Cl)cc1Cl)NC(=O)c1ccccc1"
  growth: "96.4% (inactive)"
- compound: "CN(C)CCOC(=O)Nc1ccc(Cc2ccc(NC(=O)OCCN(C)C)cc2)cc1"
  growth: "73.1% [100 µM] (inactive)"
- compound: "Clc1cccc(Cl)c1C1CSc2ccccc2N=C1c1ccccc1 (stereo not drawn)"
  growth: "88.1% (inactive)"
- compound: "CC(C)(C)CC1(C)NC(=O)NC1=O (stereo not drawn)"
  growth: "105% (inactive)"
- compound: "CC(C)(C)NCCC(O)c1cc(C(F)(F)F)nc2c(C(F)(F)F)cccc12 (stereo not drawn)"
  growth: "65.5% (inactive)"

All figures here come from PubChem BioAssay (NCI).
